- PROTOCOL DETAILS: Counterscreen qHTS for Inhibitors of Tau Fibril Formation, Fluorescence Polarization; note: nearly all actives have a fitted effect of over 55% in size
- TEST CONDITIONS: tau K18 P301L (four-repeat tau fragment) Alexa594 fluorescence, heparin fibrillization; series mostly up to 57.7 µM
The campaign covered roughly 280,000 compounds. About 2,600 (0.93%) were called active. Another 8% or so got no clear call; they are omitted. Calls come from the whole dose curve; as a rule, active = well fitted curve in the direction sought with a large enough effect; inconclusive = small, poorly fitted or top-dose-only effect; inactive = flat fitted curve, though single readings scatter. The entries come from a sample that favours actives as a whole.
Reply using exactly one outcome from true for active, false for inactive

Illustrative cases are given below, each with its answer.
C=CCN1CCC2(C)c3cc(O)ccc3CC1[C@@H]2C (stereo not given in full) | false
CC[C@]1(O)C(=O)OCc2c1cc1n(c2=O)Cc2cc3ccccc3nc2-1 | false
CC(C)(C)c1ccc(S(=O)(=O)Nc2ccc(O)c(Sc3nc4ccccc4s3)c2)cc1 | true
c1ccc2sc(SNC3CCCCC3)nc2c1 | false

Outcome logged for COc1ccccc1-c1[se]c2ccccc2c1I in this assay:
false
